Measured chromatographic logP values are reported for all entries that follow.
assay_notes: log P by HPLC on reversed phase columns (Method L0; [a] acidic, [b] neutral range)
Form: value (number only, do not type unit).

Guide cases for chromatographic logP, answers given:
{"smiles": "Cc1nn2c(C3CC3)c(C(=O)N[C@H]3CCc4ccccc43)cnc2c1-c1cccc(OC(F)(F)F)c1", "reported": 4.72}
{"smiles": "Cc1nn2c(C(C)C)c(C(=O)N[C@H]3CCOc4ccccc43)cnc2c1-c1ccc2c(c1F)OCO2", "reported": 4.18}
{"smiles": "Cc1c(C(=O)N[C@H]2CCCc3ccccc32)cnc2c(-c3ccccc3Cl)c(Cl)nn12", "reported": 4.26}
{"smiles": "Cc1nn2c(C(C)C)c(C(=O)N[C@H]3CCOc4ccccc43)cnc2c1-c1cc(F)c(F)c(F)c1", "reported": 4.97}
{"smiles": "Cc1nn2c(N3CCOCC3)c(C(=O)N[C@H]3CCOc4ccccc43)cnc2c1-c1cccc(C(F)(F)F)c1Cl", "reported": 5.59}

Entry under test: "Cc1nn2c(C(C)C)c(C(=O)N[C@H]3CCOc4ccccc43)cnc2c1-c1cccc(N2CC(F)C2)c1" . Its chromatographic logP was 4.36

The reported value for "Cc1nn2c(C3CC3)c(C(=O)N[C@H]3CCc4ccccc43)cnc2c1-c1cnn(CC2CC2)c1" in terms of chromatographic logP is 3.15

Every entry's value here was drawn from patent US11001590B2.
